The origin of these recorded values is paper PMC9959982.

- assay-summary: Cytotoxicity in MT-4 cells (MTS/PES)
- Assay type: cell-based
- condition-context: human, 50% reduction in cell viability
Overview of reported CC50 at 5 days across a group of molecules:
reported-metric: CC50 at 5 days

molecule: CN[C@@H]1[C@H](O[C@@H]2OC[C@@H](O)[C@H](O)[C@H]2O)[C@@H](O)[C@H](O[C@H]2c3cc(C)c(C(=O)N[C@H](C)C(=O)O)c(O)c3-c3c(cc4c(c3O)C(=O)c3cc(OC)cc(O)c3C4=O)[C@@H]2O)O[C@@H]1C [PRM-A, pradimicin A]
reported-metric: CC50 at 5 days
result: > 100 µM
--
molecule: O=C(CCOCC(COCCC(=O)Nc1cc(C(=O)O)cc(C(=O)O)c1)(COCCC(=O)Nc1cc(C(=O)O)cc(C(=O)O)c1)COCCC(=O)Nc1cc(C(=O)O)cc(C(=O)O)c1)Nc1cc(C(=O)O)cc(C(=O)O)c1 [Compound 35]
reported-metric: CC50 at 5 days
result: > 50 µM

* * *

- Test system: MT-4 cells
- assay-summary: Cytotoxicity in MT-4 cells (MTS/PES)
- Assay type: cell-based
- condition-context: 50% reduction in cell viability, 5 days
Overview of reported CC50 across a group of compounds:

compound: O=C(O)CCCc1[nH]c2ccccc2c1C[C@H](NC(=O)CCOCC(COCCC(=O)N[C@@H](Cc1c(CCCC(=O)O)[nH]c2ccccc12)C(=O)O)(COCCC(=O)N[C@H](Cc1c(CCCC(=O)O)[nH]c2ccccc12)C(=O)O)COCCC(=O)N[C@H](Cc1c(CCCC(=O)O)[nH]c2ccccc12)C(=O)O)C(=O)O
CC50: > 50 µM

compound: O=C(CCOCC(COCCC(=O)NC(Cc1c(CCCNC(=O)Nc2cc(C(=O)O)cc(C(=O)O)c2)[nH]c2ccccc12)C(=O)O)(COCCC(=O)NC(Cc1c(CCCNC(=O)Nc2cc(C(=O)O)cc(C(=O)O)c2)[nH]c2ccccc12)C(=O)O)COCCC(=O)NC(Cc1c(CCCNC(=O)Nc2cc(C(=O)O)cc(C(=O)O)c2)[nH]c2ccccc12)C(=O)O)NC(Cc1c(CCCNC(=O)Nc2cc(C(=O)O)cc(C(=O)O)c2)[nH]c2ccccc12)C(=O)O (stereo not drawn)
CC50: > 50 µM

compound: O=C(CCOCC(COCCC(=O)NC(Cc1c(CCCCCCCCNC(=O)Nc2cc(C(=O)O)cc(C(=O)O)c2)[nH]c2ccccc12)C(=O)O)(COCCC(=O)NC(Cc1c(CCCCCCCCNC(=O)Nc2cc(C(=O)O)cc(C(=O)O)c2)[nH]c2ccccc12)C(=O)O)COCCC(=O)NC(Cc1c(CCCCCCCCNC(=O)Nc2cc(C(=O)O)cc(C(=O)O)c2)[nH]c2ccccc12)C(=O)O)NC(Cc1c(CCCCCCCCNC(=O)Nc2cc(C(=O)O)cc(C(=O)O)c2)[nH]c2ccccc12)C(=O)O (stereo not drawn)
CC50: > 50 µM

* * *

Overview of reported CC50 across a group of molecules:
- System: rhabdosarcoma (RD) cells
- assay-summary: Adverse effect on uninfected RD cells (MTS/PMS)
- condition-context: RD cells

molecule: O=C(CCOCC(COCCC(=O)NC(Cc1c(CCCCCNC(=O)Nc2cc(C(=O)O)cc(C(=O)O)c2)[nH]c2ccccc12)C(=O)O)(COCCC(=O)NC(Cc1c(CCCCCNC(=O)Nc2cc(C(=O)O)cc(C(=O)O)c2)[nH]c2ccccc12)C(=O)O)COCCC(=O)NC(Cc1c(CCCCCNC(=O)Nc2cc(C(=O)O)cc(C(=O)O)c2)[nH]c2ccccc12)C(=O)O)NC(Cc1c(CCCCCNC(=O)Nc2cc(C(=O)O)cc(C(=O)O)c2)[nH]c2ccccc12)C(=O)O (stereo not drawn)
target-or-test-system: rhabdosarcoma (RD) cells
CC50: > 100 µM
//
molecule: O=C(CCOCC(COCCC(=O)NC(Cc1c(CCCNC(=O)Nc2cc(C(=O)O)cc(C(=O)O)c2)[nH]c2ccccc12)C(=O)O)(COCCC(=O)NC(Cc1c(CCCNC(=O)Nc2cc(C(=O)O)cc(C(=O)O)c2)[nH]c2ccccc12)C(=O)O)COCCC(=O)NC(Cc1c(CCCNC(=O)Nc2cc(C(=O)O)cc(C(=O)O)c2)[nH]c2ccccc12)C(=O)O)NC(Cc1c(CCCNC(=O)Nc2cc(C(=O)O)cc(C(=O)O)c2)[nH]c2ccccc12)C(=O)O (stereo not drawn)
target-or-test-system: rhabdosarcoma (RD) cells
CC50: > 50 µM
//
molecule: O=C(CCOCC(COCCC(=O)NC(Cc1c(CCCCCCCCNC(=O)Nc2cc(C(=O)O)cc(C(=O)O)c2)[nH]c2ccccc12)C(=O)O)(COCCC(=O)NC(Cc1c(CCCCCCCCNC(=O)Nc2cc(C(=O)O)cc(C(=O)O)c2)[nH]c2ccccc12)C(=O)O)COCCC(=O)NC(Cc1c(CCCCCCCCNC(=O)Nc2cc(C(=O)O)cc(C(=O)O)c2)[nH]c2ccccc12)C(=O)O)NC(Cc1c(CCCCCCCCNC(=O)Nc2cc(C(=O)O)cc(C(=O)O)c2)[nH]c2ccccc12)C(=O)O (stereo not drawn)
target-or-test-system: rhabdosarcoma (RD) cells
CC50: > 100 µM

* * *

Overview of reported CC50 across a group of molecules:
- Test system: rhabdosarcoma (RD) cells
- assay-summary: Adverse effect on uninfected RD cells (MTS/PMS)
- condition-context: RD cells

structure-string: O=C(O)CCCCCCc1[nH]c2ccccc2c1C[C@H](NC(=O)CCOCC(COCCC(=O)N[C@@H](Cc1c(CCCCCCC(=O)O)[nH]c2ccccc12)C(=O)O)(COCCC(=O)N[C@H](Cc1c(CCCCCCC(=O)O)[nH]c2ccccc12)C(=O)O)COCCC(=O)N[C@H](Cc1c(CCCCCCC(=O)O)[nH]c2ccccc12)C(=O)O)C(=O)O
CC50: > 100 µM

structure-string: O=C(CCOCC(COCCC(=O)NCCNC(=O)Nc1cc(C(=O)O)cc(C(=O)O)c1)(COCCC(=O)NCCNC(=O)Nc1cc(C(=O)O)cc(C(=O)O)c1)COCCC(=O)NCCNC(=O)Nc1cc(C(=O)O)cc(C(=O)O)c1)NCCNC(=O)Nc1cc(C(=O)O)cc(C(=O)O)c1
CC50: > 100 µM

structure-string: O=C(O)CCCc1[nH]c2ccccc2c1C[C@H](NC(=O)CCOCC(COCCC(=O)N[C@@H](Cc1c(CCCC(=O)O)[nH]c2ccccc12)C(=O)O)(COCCC(=O)N[C@H](Cc1c(CCCC(=O)O)[nH]c2ccccc12)C(=O)O)COCCC(=O)N[C@H](Cc1c(CCCC(=O)O)[nH]c2ccccc12)C(=O)O)C(=O)O
CC50: > 100 µM
